Molecular target: Caspase-1 (Homo sapiens, UniProt P29466)
Sequence (P29466 120-297 limits assumed): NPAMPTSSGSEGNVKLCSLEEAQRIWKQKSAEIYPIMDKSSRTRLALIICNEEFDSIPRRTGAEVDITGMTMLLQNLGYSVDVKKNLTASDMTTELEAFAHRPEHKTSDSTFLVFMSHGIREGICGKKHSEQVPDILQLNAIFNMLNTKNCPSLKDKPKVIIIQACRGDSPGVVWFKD
Sequence (P29466 317-404 limits assumed): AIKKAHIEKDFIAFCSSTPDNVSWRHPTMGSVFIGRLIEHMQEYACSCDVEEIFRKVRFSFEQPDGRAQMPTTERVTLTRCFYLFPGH
experimental-endpoint: Ki (nM)

compound: CC(C)[C@H](NC(=O)OCc1ccccc1)C(=O)N[C@@H](C)C(=O)NC(CC(=O)O)C(=O)CCCCCc1ccccc1 (some centres undefined)
target: Caspase-1 (Homo sapiens, UniProt P29466)
Ki / nM: 134
//
compound: CC(=O)N[C@@H](Cc1ccc(O)cc1)C(=O)N[C@H](C(=O)N[C@@H](C)C(=O)NC(CC(=O)O)C(=O)CCCCCc1ccccc1)C(C)C (some centres undefined)
target: Caspase-1 (Homo sapiens, UniProt P29466)
Ki / nM: 14

A = CC(C)[C@H](NC(=O)OCc1ccccc1)C(=O)N[C@@H](C)C(=O)NC(CC(=O)O)C(=O)CNS(=O)(=O)CCc1ccccc1 (some centres undefined)
B = O=C(O)CC(NC(=O)OCc1ccccc1)C(=O)CCCCCc1ccccc1 (centres undefined)
In terms of reported Ki, does A or B have the smaller number? Reply with the label of the item you choose.
A
(A: 4 nM, B: 119000 nM)
